Assay System: 3-phosphoinositide-dependent protein kinase 1 (Homo sapiens);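 note: values are mean inhibition of PDK1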
Particulars: at 0.1 µM
Would you kindly list inhibition for each of these compounds?
Write the value in % as a bare number.

Ask: Look up inhibition for this compound: O=C(Nc1n[nH]c2cc(-c3ccccc3)ccc12)C1CC1
Result: 1.51

Ask: Sample CN(C)CCOc1ccc(-c2cc(-c3ccc4c(c3)CCC4=NO)c(-c3ccncc3)o2)cc1 — what was its inhibition?
Result: 0.51

Ask: Look up inhibition: CCS(=O)(=O)c1ccc(OC)c(Nc2ncc(-c3ccccc3Cl)o2)c1
Result: 4.14

Ask: Fill in: inhibition of CCc1cccc(CC)c1/C=C/c1cncc(C(=O)NC)c1 is ___
Result: 0.34

Ask: Record request: inhibition value, item Fc1ccc(-c2c(-c3ccncc3)nc3n2CCS3)cc1
Result: 2.05

Ask: Please report the recorded inhibition for C#Cc1cccc(Nc2ncnc3ccc(OCCCCNCCS(C)(=O)=O)cc23)c1 .
Result: 1.83

Ask: Record request: inhibition value, item COc1ccc(-c2ccc3c(NC(=O)C4CC4)n[nH]c3n2)cc1
Result: -1.04

Ask: Looking for the measured inhibition of COc1cc(N2CCN(C(C)C)CC2)ccc1Nc1nc(Nc2ccc(F)cc2C(=O)NC[C@@H](O)CO)c2cc[nH]c2n1 , can you help?
Result: -0.19

Ask: Fill in: inhibition of O=C1Nc2ccc(I)cc2C1=Cc1cc(Br)c(O)c(Br)c1 is ___
Result: 1.34

Ask: GET /values?readout=inhibition&item= CCC(=O)Nc1ccc(C)c(-c2ccc(C(=O)NCC3CC3)cc2)c1
Result: 2.1

----------
Assay System: Serine/threonine-protein kinase pim-1 (Homo sapiens);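 note: reported value is the mean inhibition of PIM1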
Particulars: at 0.1 µM
Assay Readout: inhibition
Don't forget the unit after the number, please.

Ask: Find the recorded inhibition belonging to NC(=O)c1cc(-c2ccc(F)cc2)cc(-c2ccncc2)c1N and report it.
Result: 0.02%

Ask: Field request: inhibition | item: Cc1nnc(-c2ccc(C)c(-c3ccc(C(=O)NCc4ccc(Cl)cc4)cc3)c2)o1
Result: 0.2%

Ask: Which inhibition value belongs to NS(=O)(=O)c1ccc(Nc2cc(-c3ccc(O)c(F)c3)n[nH]2)cc1 ?
Result: -1.13%

Ask: Data request, read-out inhibition, for O=C(Nc1ccc(Oc2ccc3[nH]c(NC(=O)c4ccccc4)nc3c2)cc1)Nc1cc(C(F)(F)F)ccc1F
Result: 0.97%

Ask: Give its inhibition value. Item: COc1cc(Nc2ncc3c(C)nc(-c4cccc(C(F)(F)F)c4)n3n2)cc(OC)c1OC
Result: 0.28%

----------
Assay System: Cytoplasmic tyrosine-protein kinase BMX (Homo sapiens);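 note: reported value is the mean percent inhibition of BMX, from the GSK PKIS kinase inhibitor screen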
Sequence (whole entry): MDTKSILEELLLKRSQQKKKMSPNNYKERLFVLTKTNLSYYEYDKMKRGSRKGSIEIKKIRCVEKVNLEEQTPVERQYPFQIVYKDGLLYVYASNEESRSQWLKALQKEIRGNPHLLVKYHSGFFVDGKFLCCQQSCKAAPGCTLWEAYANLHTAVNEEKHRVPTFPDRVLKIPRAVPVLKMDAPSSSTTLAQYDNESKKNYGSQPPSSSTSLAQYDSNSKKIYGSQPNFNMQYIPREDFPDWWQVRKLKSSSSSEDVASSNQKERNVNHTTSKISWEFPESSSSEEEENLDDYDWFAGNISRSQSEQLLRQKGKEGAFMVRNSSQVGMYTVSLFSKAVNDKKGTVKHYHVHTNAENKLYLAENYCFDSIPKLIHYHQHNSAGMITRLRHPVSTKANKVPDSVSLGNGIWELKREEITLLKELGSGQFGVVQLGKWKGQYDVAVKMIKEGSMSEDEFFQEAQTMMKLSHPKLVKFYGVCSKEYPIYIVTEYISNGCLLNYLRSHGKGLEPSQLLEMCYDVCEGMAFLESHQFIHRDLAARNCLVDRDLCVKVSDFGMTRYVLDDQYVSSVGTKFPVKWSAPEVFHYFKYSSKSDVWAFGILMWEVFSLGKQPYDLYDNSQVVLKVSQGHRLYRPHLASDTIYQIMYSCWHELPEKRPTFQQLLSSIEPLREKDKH
Particulars: at 1 µM
Assay Readout: inhibition
Your reply should be a number followed by the unit it is expressed in.

Ask: Sample CN(C)CCOc1ccc(-c2cc(-c3ccc4c(c3)CCC4=NO)c(-c3ccncc3)o2)cc1 — what was its inhibition?
Result: 1.43%

Ask: Report inhibition for COc1cc(C)c(N(C)C(=O)CN(C)C)cc1Nc1nc(Nc2cccc(F)c2C(N)=O)c2cc[nH]c2n1 please.
Result: 2.46%

Ask: Any idea what inhibition was measured for O=C(Nc1ccc(Oc2ccc3[nH]c(NC(=O)c4ccccc4)nc3c2)cc1)Nc1cc(C(F)(F)F)ccc1F ?
Result: 2.54%

Ask: Return reported inhibition; argument: NC(=O)c1cc(-c2ccncc2)cc(-c2ccccc2)c1N
Result: 49.6%

Ask: Name the recorded inhibition for COc1ccc2ncn(-c3cc(O[C@H](C)c4ccccc4Cl)c(C(N)=O)s3)c2c1 .
Result: 4.61%
